Assay: NCI Yeast Anticancer Drug Screen. Data for the cln2 rad14 strain (AID 165);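 further: 0% = growth equal to vehicle treated cultures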
Conditions: S. cerevisiae cln2 rad14 strain, at 5.0 µM (retest, dose inferred, filed as 0.5), hits give high values
Compounds without any hit were thinned out: in the full panel of roughly 79,000, 15% have a hit. Active and inactive are the calls of the source. No stated cut-off is given here; in the data, active means growth inhibition above about 70%; inactive means the rest.
observed property: growth inhibition

INSERT INTO assay_data (compound, observed_property, assay_result) VALUES
  ('CN(C)CCCNc1ccc2c(=O)n(CCN(C)C)c(=O)n3c4ccccc4c(=O)c1c23', 'growth inhibition', '40% (inactive)'),
  ('Cn1c2ccccc2c2c(C#N)c(C#N)c([N+](=O)[O-])cc21', 'growth inhibition', '9% (inactive)'),
  ('Cc1cc(NS(=O)(=O)c2ccc(Nc3c4ccccc4nc4c(C(=O)NC(CO)(CO)CO)cccc34)cc2)no1', 'growth inhibition', '-21% (inactive)'),
  ('COC(=O)c1[nH]cnc1/N=N/N(C)C', 'growth inhibition', '99% (active)'),
  ('NC1CCCCC1N.O=S(=O)([O-])CCCN1CCN(CCO)CC1.O=S(=O)([O-])CCCN1CCN(CCO)CC1.[Pt+4]', 'growth inhibition', '44% (inactive)'),
  ('CN(C)CC(CN(C)C)C(=O)c1ccc(Oc2ccc(Cl)c(Cl)c2)cc1', 'growth inhibition', '4% (inactive)'),
  ('Cc1ccc(N=NC(C(=O)c2ccccc2)C(=O)c2ccccc2)cc1', 'growth inhibition', '7% (inactive)'),
  ('C=CCOc1ccc(N=NC(C#N)C#N)cc1', 'growth inhibition', '0% (inactive)'),
  ('CCCC(O)C[N+](=O)[O-] (stereo not given)', 'growth inhibition', '-1% (inactive)'),
  ('CCc1cccc(C(C)(C)C)c1NC(=S)N/C=C(\c1ccccc1)S(=O)Cc1ccccc1 (stereo not given)', 'growth inhibition', '-15% (inactive)');

----------
Quick list: growth inhibition per entry.
Assay: NCI Yeast Anticancer Drug Screen. Data for the cln2 rad14 strain (AID 165);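 further: 0% = growth equal to vehicle treated cultures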
Conditions: S. cerevisiae cln2 rad14 strain, at 50.0 µM, hits give high values
The panel holds about 79,000 compounds, 15% with a hit somewhere; the sample as a whole holds those more often.
observed property: growth inhibition (%)

INSERT INTO measurements (molecule, measurement_unit, assay_result) VALUES
  ('O=C1Oc2ccccc2C1c1ccccc1 (stereo unspecified)', '%', 8.4),
  ('CC1=C(/C=C/C(C)=N/NC(N)=S)C(C)(C)CCC1', '%', 76.9),
  ('O=C(Nc1ccccc1)OCCc1ccc(Br)cc1', '%', -7.85),
  ('O=[N+]([O-])c1ccc(Oc2c(Cl)cccc2Cl)cc1', '%', -44.1),
  ('Nc1ccc2c(c1)[nH]c(=O)c1cccc(Cl)c12', '%', 63.9),
  ('O=[N+]([O-])c1ccc(-[n+]2ccc3ccccc3c2)c([N+](=O)[O-])c1', '%', 37.4);

----------
Quick list: growth inhibition per entry.
Assay: NCI Yeast Anticancer Drug Screen. Data for the rad50 strain (AID 155);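 further: 0% = growth of vehicle-only cultures of the same strain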
Details: S. cerevisiae rad50 strain growth inhibition; at 50.0 µM; hits give high values
This is part of a sample that, as a whole, favours compounds with a hit. Of some 79,000 tested, about 15% had one in any assay.
observed property: growth inhibition (%)

INSERT INTO results (compound, observed_property, assay_result) VALUES
  ('O=[N+]([O-])c1ccc(N=Nc2ccc(O)cc2O)cc1', 'growth inhibition', 98.5),
  ('CCCCCC(CO)C(O)(C(F)(F)F)C(F)(F)F (centres undefined)', 'growth inhibition', 44.8),
  ('NC(CCCNc1nc(O)cc(=O)[nH]1)C(=O)O (centres undefined)', 'growth inhibition', 18.2),
  ('CN(C)CCC(=O)/C=C/c1ccccc1', 'growth inhibition', 53),
  ('CN(C)COC(=S)SCN(C)C', 'growth inhibition', 51.4),
  ('N#CSCC(=O)c1ccc(Cl)cc1', 'growth inhibition', 89.5),
  ('C=C/C=C/CC=C', 'growth inhibition', 34.2),
  ('CS/C(N)=N/NC(=O)CCC(=O)Nc1cc(Cl)c(Cl)cc1Cl', 'growth inhibition', 24.7),
  ('S=C1Nc2cnc3ccccc3c2SC1c1ccccc1 (centres undefined)', 'growth inhibition', 87),
  ('Cc1ccnc2c1ccc1c(C)ccnc12', 'growth inhibition', 99),
  ('O=C(O)Cc1nc2ccccc2[nH]1', 'growth inhibition', 25.9),
  ('CS(=O)(=O)c1nc(Cl)c(Cl)c(C#N)c1Cl', 'growth inhibition', 98.3),
  ('O=C(CNC(=O)C(CSCc1ccccc1)NC(=O)OCc1ccccc1)Oc1c(Cl)c(Cl)c(Cl)c(Cl)c1Cl (centres undefined)', 'growth inhibition', 46.9),
  ('Cc1c(S(C)=O)[n+](=O)c2ccccc2n1[O-] (centres undefined)', 'growth inhibition', 32.9),
  ('Cn1c2ccccc2c2c(C#N)c(C#N)c([N+](=O)[O-])cc21', 'growth inhibition', 97.2),
  ('Nc1ccc2c(SCCSc3c4ccccc4nc4cc(N)ccc34)c3ccccc3nc2c1', 'growth inhibition', 56),
  ('CCOC1Oc2ccccc2-c2nc(SC)ncc21 (centres undefined)', 'growth inhibition', 75.4),
  ('Nc1ccc(/C=C/c2ccccc2)cc1', 'growth inhibition', 87.5),
  ('C[n+]1c(-c2ccc(/C=C/C=N\NC(=O)c3ccc(C(=O)N/N=C\C=C\c4ccc(-c5cn6ccccc6[n+]5C)cc4)cc3)cc2)cn2ccccc21', 'growth inhibition', 96.1),
  ('C/C(=N\NC(=S)NCc1ccccc1)c1nccnc1C', 'growth inhibition', 90.9),
  ('Cc1ccc(C)c(NC(=O)CCC(=O)C(C#N)c2cccc3ccccc23)c1 (centres undefined)', 'growth inhibition', -25.4),
  ('C[n+]1c(-c2cccc(OCCOCCOc3cccc(-c4c5cc(N)ccc5c5ccc(N)cc5[n+]4C)c3)c2)c2cc(N)ccc2c2ccc(N)cc21', 'growth inhibition', 85.5),
  ('CCCCCCN(CCCCCC)CCC(=O)c1ccc2cc(Br)c3ccccc3c2c1', 'growth inhibition', 98.6),
  ('Cc1nc(Nc2c(C)cccc2C)c2c(C)c[nH]c2n1', 'growth inhibition', 86.8);

----------
Assay: NCI Yeast Anticancer Drug Screen. Data for the rad50 strain (AID 155);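 further: 0% = growth of vehicle-only cultures of the same strain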
Conditions: S. cerevisiae rad50 strain growth inhibition; at 50.0 µM
This is part of a sample that, as a whole, favours compounds with a hit. Of some 79,000 tested, about 15% had one in any assay. Active and inactive are the calls of the source. Rule as the data show it: active = growth inhibition above about 70%; inactive = the rest.
Classes used: active, inactive

INSERT INTO assay_data (compound, group_label) VALUES
  ('CC1(COc2ccccc2OCC2(C)CO2)CO1 (stereo not drawn)', 'inactive'),
  ('CN(C)c1ccc(N=Nc2cccc3ccccc23)cc1', 'inactive'),
  ('COC(=O)c1ccccc1N=NN(C)CC1OC2OC(C)(C)OC2C1OC (stereo not drawn)', 'active'),
  ('CCCCCC/C=C\CCCCCCCCCC1=C(CN2CCN(C)CC2)C(=O)C=C(OC)C1=O', 'active'),
  ('O=C1C2(Cl)C(Cl)=C(Cl)C1(Cl)C1(Cl)C(Cl)=C(Cl)C(=O)C21Cl (stereo not drawn)', 'active'),
  ('CC(=O)N1CCC(Cc2ccccc2)CC1', 'inactive'),
  ('[N-]=[N+]=Nc1c(Cc2ccccc2)c(=O)oc2ccccc12', 'inactive'),
  ('CN1c2ccccc2C(C)(C)C12C=Cc1cc(O)ccc1O2 (stereo not drawn)', 'active'),
  ('CCCCCCCCCCCCCCCCCC(=O)OCC(COC(=O)CCCN)OC(=O)CCCN (stereo not drawn)', 'active'),
  ('CN(C)c1nc(=NCc2ccccc2)ss1', 'inactive'),
  ('CCCCCCCCSCc1ccc(N)cc1', 'active'),
  ('O=C1c2ccccc2C(=O)N1c1ccccc1', 'inactive'),
  ('CCOC(=O)NCCCc1ccc2oc3ccccc3c2c1', 'active');

----------
Experiment: NCI Yeast Anticancer Drug Screen. Data for the cln2 rad14 strain (AID 165);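 further: 0% = growth equal to vehicle treated cultures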
Details: S. cerevisiae cln2 rad14 strain, at 5.0 µM (retest, dose inferred, filed as 0.5), hits give high values
This is part of a sample that, as a whole, favours compounds with a hit. Of some 79,000 tested, about 15% had one in any assay. Active and inactive are the calls of the source. Cut-off read from the data, not from the text of the source: active = growth inhibition above about 70%; inactive = the rest.
observed property: growth inhibition

INSERT INTO results (molecule, assay_result) VALUES
  ('Cc1c(Cl)cccc1N=NC(=O)NNc1cccc(Cl)c1C', '29% (inactive)'),
  ('CSc1nc(NN)cc(-c2ccccc2)n1', '2% (inactive)'),
  ('CC(C)OC(=O)c1ccc(NCC2=CC(=O)C=CC2=O)cc1Cl', '61% (inactive)'),
  ('O=C(Nc1ccc(S(=O)(=O)NC2CCCCC2)cc1)OCc1ccccc1', '28% (inactive)'),
  ('COc1ccc2c(c1)CCc1c-2ccc(C)c1CCC(=O)O', '-3% (inactive)'),
  ('O=C(O)C(Br)C(Br)c1ccccc1[N+](=O)[O-] (configuration not stated)', '21% (inactive)'),
  ('O=C(CC1(O)C(=O)Nc2c(Cl)ccc(Cl)c21)c1ccc(Cl)cc1Cl (configuration not stated)', '-6% (inactive)'),
  ('CC(N)C(O)c1ccc2ccc3ccccc3c2c1 (configuration not stated)', '-13% (inactive)'),
  ('Cc1ccc(S(=O)(=O)N(c2ccccc2-c2ccccc2)C(C)C(=O)O)cc1 (configuration not stated)', '3% (inactive)'),
  ('O=C(Cc1ccccc1)c1ccc(O)c(F)c1', '4% (inactive)'),
  ('COC(=O)c1ccc(/C=C/C2=CC(=O)C=CC2=O)cc1', '18% (inactive)'),
  ('CCc1ccc(-c2ccccc2)cc1', '-7% (inactive)');
